Hey, just so you know, these numbers are from patent US20260069689A1.

- TGT: SARS-COV-2 RBD-MMH (SARS-COV-2 RBD extracellular domain with C-terminal myc-myc-hexahistidine tag) (SARS-CoV-2)
Recorded t½ at pH 6.0 by entry
Kindly answer with a numeric value in min, unit omitted.

Sample records with t½ at pH 6.0:
mAb15166 (antibody, V domains shown) VH: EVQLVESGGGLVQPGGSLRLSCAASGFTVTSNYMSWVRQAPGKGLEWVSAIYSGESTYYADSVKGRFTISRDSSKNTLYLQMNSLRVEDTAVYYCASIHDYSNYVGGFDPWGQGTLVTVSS VL: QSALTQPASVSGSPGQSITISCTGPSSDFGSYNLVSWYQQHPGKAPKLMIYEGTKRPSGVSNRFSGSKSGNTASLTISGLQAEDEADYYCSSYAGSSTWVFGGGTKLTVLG ... 0.4
mAb13458 (antibody, V domains shown) VH: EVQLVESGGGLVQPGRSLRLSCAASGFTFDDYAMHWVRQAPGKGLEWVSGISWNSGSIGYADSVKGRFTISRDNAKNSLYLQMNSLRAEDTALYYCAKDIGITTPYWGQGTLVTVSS VL: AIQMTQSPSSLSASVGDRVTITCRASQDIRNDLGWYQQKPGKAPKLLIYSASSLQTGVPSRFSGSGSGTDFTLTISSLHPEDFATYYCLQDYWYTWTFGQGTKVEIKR ... 5.8

Now take the following binder into account.
Exam item: Reported t½ at pH 6.0, binder mAb15164 (antibody, V domains shown) VH: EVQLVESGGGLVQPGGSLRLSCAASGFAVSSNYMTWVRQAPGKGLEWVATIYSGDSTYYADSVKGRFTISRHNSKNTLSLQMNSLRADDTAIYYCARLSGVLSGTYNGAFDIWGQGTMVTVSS VL: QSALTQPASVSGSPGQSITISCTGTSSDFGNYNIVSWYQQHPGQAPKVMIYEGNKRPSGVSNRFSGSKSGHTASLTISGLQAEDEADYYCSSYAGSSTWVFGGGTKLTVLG : ____
Marked response: 5.5
